Reported Inhibition assay of enzyme activity, MAX % inhibition values for the following binders.
tgt: T1, human CD73 (full length, on transfected CHOK1 cells) (human, UniProt P21589 27-549)
T1 sequence (looked up): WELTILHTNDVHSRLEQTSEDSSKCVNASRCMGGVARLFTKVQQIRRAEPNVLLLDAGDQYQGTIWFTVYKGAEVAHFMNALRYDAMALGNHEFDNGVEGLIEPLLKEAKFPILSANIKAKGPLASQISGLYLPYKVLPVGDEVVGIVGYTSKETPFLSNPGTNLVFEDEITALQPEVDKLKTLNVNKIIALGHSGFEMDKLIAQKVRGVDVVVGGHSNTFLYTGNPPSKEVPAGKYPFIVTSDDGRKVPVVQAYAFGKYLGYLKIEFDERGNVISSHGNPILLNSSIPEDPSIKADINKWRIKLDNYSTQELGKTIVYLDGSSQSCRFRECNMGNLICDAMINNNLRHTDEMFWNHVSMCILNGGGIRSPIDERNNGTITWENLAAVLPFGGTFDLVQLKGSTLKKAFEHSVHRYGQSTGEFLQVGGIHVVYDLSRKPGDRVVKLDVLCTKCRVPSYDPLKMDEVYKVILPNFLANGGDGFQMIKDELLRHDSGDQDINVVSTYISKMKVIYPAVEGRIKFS
protocol: cell-based or functional assay
# output: bare number, implied unit %

Examples with answers:
| binder | assay value |
| --- | --- |
| mab042xhIgG1TM (clone 77B9A3), mouse-human chimeric anti-CD73 antibody (antibody, V domains shown, also called mAb042 chimeric antibody) VH: QVQLQQSGAGLVKPGASVKLSCKASGYTFTNYWMHWVKQRPGQGLEWIGMIHPNSGSTNNNEKFKNKATLTVDKSSNTAYMQLSSLTSEDSAVYYCARFFFGGYPHYYALDYWGQGTSVTVSS VL: DIVMTQSQKFMSTTVGDRVSITCKASQNVGTAVAWYQQKPGQSPKLLIYSASDRYTGVPDRLTGSGSGTDFTLTISNVQSEDLADYFCQQYSSFPLFTFGSGTKLVIQ | 66.3 |
| mab034xhIgG1TM (clone 60G1C8), mouse-human chimeric anti-CD73 antibody (antibody, V domains shown, also called mAb034 chimeric antibody) VH: DVQLQESGPGLVKPSQSLSLTCSVTGYSITSRYYWNWIRQFPGNKLEWMGYMTYDGTNNYNPSLTNRISITRDTSKNQFFLKLNSVTAEDTATYFCARGGWDPFDYWGQGTTLTVSS VL: DIQMTQSPAALSASVGETVTITCRASDNIYSYLAWYQQKQGKCPQLLVKNAKTLAEGVPSRFSGSGSGTQFSLRINSLQPDDFGTYYCQHYYGTPLTFGAGTKLELK | 61.5 |
| mab032xhIgG1TM (clone 56F12H8), mouse-human chimeric anti-CD73 antibody (antibody, V domains shown, also called mAb032 chimeric antibody) VH: EVQLVESGGDLVKPGGSLKLSCAASGFTFSTHGMSWVRQTPDKRLEWVAIISSDRSDIDYTDNVKGRFTISRDNGKNTLYLQMSSLKSEDTAIYHCARHRGYDGFYYAMDYWGQGTSVTVSS VL: DILMTQSPSSLTVTAGEKVTMSCRSSQSLLNSGNQKNYLTWYQQRPGRPPKLLIYWASTRISGVPDRFAGSGSGTDFTLTISIVQAEDLAVYYCQNDYSYPLTFGSGTKLELR | 65.1 |

For the binder shown here, mab030xhIgG1TM (clone 42A5A7), mouse-human chimeric anti-CD73 antibody (antibody, V domains shown, also called mAb030 chimeric antibody) VH: DIQLQESGPGLVKPSQSLSLTCSVTGYSITSRYYWNWIRQFPGNKLEWMGYITYDDNNNYNPSLKNRISITRDTSKNQFFLKLNSVTPEDTATYYCARGGWDPFLYWGQGTLVTVSA VL: DIQMTQSPASLSASVGETVTITCRASDNIYSYLAWYQQKQGKSLQLLVDSAKNLGEGVPSRFSGSGSGTQFYLKINSLQPEDFGVYYCQHYYGTPFTFGGGTKLELK , give the reported Inhibition assay of enzyme activity, MAX % inhibition. 67.4

For the binder shown here, mab036xhIgG1TM (clone 66H6C12), mouse-human chimeric anti-CD73 antibody (antibody, V domains shown, also called mAb036 chimeric antibody) VH: QVQLQQSGAEVVKPGASVKISCKASGYVFSSYWINWVKQRPGKGLEWIGKIFPGNGDTDYNGNFKGKATLTADKSSSTAYMQLSSLTSEDSAVYFCAGFADWGQGTLVTVSA VL: DIQMTQSPSSLSASLGERVSLTCRASQDIGERLIWLQQEPDGTFKRLIYATSSLDSGVPKRFSGSSSGSDYSLTISRLESEDFVDYYCLQYASSPYTFGGGTKLEIK , give the reported Inhibition assay of enzyme activity, MAX % inhibition. 60.6
